system_name: human PAR-2 (Homo sapiens, UniProt P55085)
Construct: Human colorectal adenocarcinoma cell line, HCT-15, expressing endogenous PAR-2 at high levels; endogenous in cells; host or cells: HCT-15 (human colorectal adenocarcinoma)
Sequence (P55085 26-397): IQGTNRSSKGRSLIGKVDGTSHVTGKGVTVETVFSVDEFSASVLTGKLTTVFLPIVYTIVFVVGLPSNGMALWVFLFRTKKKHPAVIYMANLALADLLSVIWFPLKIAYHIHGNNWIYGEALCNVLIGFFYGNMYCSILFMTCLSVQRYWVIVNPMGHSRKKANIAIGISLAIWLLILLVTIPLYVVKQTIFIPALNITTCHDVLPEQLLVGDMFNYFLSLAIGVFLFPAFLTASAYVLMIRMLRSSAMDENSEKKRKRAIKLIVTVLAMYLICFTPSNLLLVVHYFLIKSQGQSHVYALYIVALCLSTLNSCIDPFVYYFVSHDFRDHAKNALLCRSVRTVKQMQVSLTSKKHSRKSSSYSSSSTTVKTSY
assay_details: PAR-2 activation potency: intracellular calcium mobilization assay (modified Hawthorne's method) in HCT-15 cells
Assay type: cell-based
reported_conditions: HCT-15 cells expressing endogenous PAR-2; fluorescent Ca2+ indicator dye, 2.5 mM Probenecid; read-out: Agonist Activity (EC50)
Procedure: PAR-2 activation with the peptide derivative represented by the general formula (I) in accordance with the invention can be tested by various known methods. […] The inventors tested the PAR-2 activation potency according to the modified Hawthorne's method. […] The agonist-mediated intracellular calcium mobilization was measured using multiwell plate reader. […]

- substance: "H-SLIGKV-OH [SLIGKV-OH, reference compound]"
  EC50 (µM): 22.8
